# test system: human recombinant GST cleaved CSNK1D (Homo sapiens)
# Construct: GST (cleaved yes)
# Sequence (P48730 whole entry): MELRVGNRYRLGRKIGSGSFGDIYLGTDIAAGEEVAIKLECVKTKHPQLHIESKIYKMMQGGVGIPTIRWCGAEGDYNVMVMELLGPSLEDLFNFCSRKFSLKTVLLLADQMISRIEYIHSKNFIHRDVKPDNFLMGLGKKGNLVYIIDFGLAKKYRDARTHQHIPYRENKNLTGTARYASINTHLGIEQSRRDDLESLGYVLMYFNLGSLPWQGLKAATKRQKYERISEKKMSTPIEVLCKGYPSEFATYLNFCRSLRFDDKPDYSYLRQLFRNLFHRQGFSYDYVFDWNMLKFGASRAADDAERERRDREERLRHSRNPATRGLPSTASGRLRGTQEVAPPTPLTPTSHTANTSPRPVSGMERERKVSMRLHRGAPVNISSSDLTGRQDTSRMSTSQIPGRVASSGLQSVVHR
# assay summary: Purified Enzyme Assay (ADP-Glo CSNK1D Kinase Assay)
# condition parameters: 2 nM CSNK1D; peptide substrate 150 μM; ATP 20 μM; 45 minutes at room temperature
For each record, write down the corresponding pIC50.
The value called pIC50 is obtained by taking minus log10 of the concentration in mol/L.

Problem: Enter reported pIC50 observed with human recombinant GST cleaved CSNK1D (Homo sapiens) for Cc1nc2[nH]nc(C)c2c(-c2c(-c3ccc(F)cn3)nn3c2CC[C@@H]2C[C@@H]23)c1F (single isomer, unassigned)
Result: 7.60

Problem: Provide value of pIC50 for this record tested with human recombinant GST cleaved CSNK1D (Homo sapiens): COCC1(F)CCc2c(-c3cc(C(F)F)nc4[nH]ncc34)c(-c3ccc(F)cn3)nn2C1 (single isomer, unassigned) [Example 307]
Result: 6.74

Problem: # query: pIC50 | item CC1CCCc2c(-c3ccnc4[nH]ncc34)c(-c3ccc(F)cc3)nn21 (single isomer, unassigned) | system: human recombinant GST cleaved CSNK1D (Homo sapiens)
Result: 8.40

Problem: Form: Entry = Fc1ccc(-c2nn3c(c2-c2ccnc4[nH]ncc24)[C@H]2CC[C@@H]3C2)cc1 (single isomer, unassigned) | System = human recombinant GST cleaved CSNK1D (Homo sapiens) | pIC50 = ____
Result: 8.30

Problem: Hello, I am looking for reported pIC50 with human recombinant GST cleaved CSNK1D (Homo sapiens) for Cc1cc(-c2c(-c3ccc(F)cc3)nn3c2CO[C@H](C)C3)c2cn[nH]c2n1 (single isomer, unassigned) . Could you help?
Result: 9.00

Problem: # value lookup — system human recombinant GST cleaved CSNK1D (Homo sapiens), readout pIC50, item Cc1cc(-c2c(-c3ccc(F)cc3)nn3c2CC2(CC2)C3)c2cn[nH]c2n1
Result: 8.70

---

# test system: human CSNK1D (Homo sapiens)
# Sequence (P48730 whole entry): as above
# assay summary: Whole Cell nBRET CSNK1D Binding Assay
# condition parameters: living CHO cells stably expressing human CSNK1D tagged with nanoluciferase; NanoBret tracer 130 nM; 2 hours at 37 C
measure: IC50 (nM)
Write the number in nM without appending the unit.

Problem: Please tell me: IC50 of COCC1(F)CCc2c(-c3c(F)c(C)nc4[nH]ncc34)c(-c3ccc(F)cn3)nn2C1 (single isomer, unassigned) [Example 308] , system human CSNK1D (Homo sapiens)?
Result: 34

Problem: // map Cc1cc(-c2c(-c3ccc(F)cn3)nn3c2CCC3)c2cn[nH]c2n1 to recorded IC50 (system: human CSNK1D (Homo sapiens))
Result: 87

Problem: Form: Entry = Cc1nc(-c2c(-c3ccc(F)cc3)nn3c2COC(C(F)(F)F)C3)c2cn[nH]c2n1 (single isomer, unassigned) [Example 377] | System = human CSNK1D (Homo sapiens) | IC50 = ____
Result: 2480

Problem: Param readout = IC50; param system = human CSNK1D (Homo sapiens); param query = CCn1ncc2cc(-c3c(-c4ccc(F)cn4)nn4c3OCC(C)C4)cnc21 (stereo not shown) ; response: value
Result: 1590

Problem: Please provide the recorded IC50 for Cc1nc2[nH]ncc2c(-c2c(-c3ccc(F)cn3)nn3c2CCC3)c1F , tested on human CSNK1D (Homo sapiens).
Result: 60

Problem: Return IC50 measured with human CSNK1D (Homo sapiens) given this compound: CC1(C)Cn2nc(-c3ccc(F)cn3)c(-c3ccncc3)c2CO1
Result: 244

Problem: Recall the recorded IC50 for Cc1cc(-c2c(-c3ccc(F)cc3)nn3c2CCC3)c2cn[nH]c2n1 with human CSNK1D (Homo sapiens) and state it.
Result: 22

Problem: Record lookup: for human CSNK1D (Homo sapiens), what IC50 belongs to [2H]C([2H])([2H])C1(C([2H])([2H])[2H])CCc2c(-c3ccnc4[nH]ncc34)c(-c3ccc(F)cn3)nn2C1 ?
Result: 7

Problem: Test system human CSNK1D (Homo sapiens); read-out IC50; what value for Cc1cc(-c2c(-c3ccc(F)cc3)nn3c2OCCCC3)c2cn[nH]c2n1 ?
Result: 25

Problem: Field: IC50 (human CSNK1D (Homo sapiens)). Entry: CC1COc2c(-c3ccnc4[nH]ncc34)c(-c3ccc(F)cn3)nn2C1 (stereo not shown)
Result: 40

Problem: Entry Fc1ccc(-c2nn3c(c2-c2c(F)cnc4[nH]ncc24)C[C@H](F)C3)cc1 , system human CSNK1D (Homo sapiens): what IC50 was measured?
Result: 3

Problem: GET /values?readout=IC50&system=human CSNK1D (Homo sapiens)&item= Fc1ccc(-c2nn3c(c2-c2ccnc4[nH]ncc24)C2CC2C3)nc1 (racemic)
Result: 48

Problem: Could you share what IC50 was measured for CC(=O)Nc1cc(-c2c(-c3ccc(F)cc3)nn3c2CCC2C3C2(F)F)ccn1 (racemic) , tested on human CSNK1D (Homo sapiens)?
Result: 3

Problem: // lookup IC50 | system=human CSNK1D (Homo sapiens) | key= Fc1ccc(-c2nn3c(c2-c2ccn4nccc4c2)OCCC3)nc1
Result: 516

Problem: // lookup IC50 | system=human CSNK1D (Homo sapiens) | key= CC1(C)Cn2nc(-c3ccc(F)cn3)c(-c3ccnc4[nH]cc(C#N)c34)c2CO1
Result: 3280

Problem: Lookup: IC50 / human CSNK1D (Homo sapiens) / CC(C)[C@H]1Cn2nc(-c3ccc(F)cn3)c(-c3ccnc4[nH]ncc34)c2CO1 (single isomer, unassigned)
Result: 2280

---

# test system: human recombinant GST cleaved CSNK1D (Homo sapiens)
# Construct: GST (cleaved yes)
# assay summary: Purified Enzyme Assay (ADP-Glo CSNK1D Kinase Assay)
# condition parameters: 2 nM CSNK1D; peptide substrate 150 μM; ATP 20 μM; 45 minutes at room temperature
measure: IC50 (nM)
Please respond with the number in nM and leave the unit unwritten.

Problem: May I ask what IC50 has been recorded for Cc1cnc(N)cc1-c1c(-c2ccc(F)cn2)nn2c1COC(C)(C)C2 ?
Result: 119

Problem: Data request, read-out IC50, for CC1(C)COc2c(-c3ccn4nccc4c3)c(-c3ccc(F)cn3)nn2C1
Result: 8

Problem: What does the record list as IC50 for Cc1n[nH]c2nccc(-c3c(-c4ccc(F)cc4)nn4c3COC(C(F)(F)F)C4)c12 (single isomer, unassigned) [Example 373] ?
Result: 306

Problem: # input compound: Cc1cc(-c2c(-c3ccc(F)cc3)nn3c2C(C)(C)CC3)c2cn[nH]c2n1 ; wanted: its IC50
Result: 5

Problem: Given the compound Fc1ccc(-c2nn3c(c2-c2ccnc4[nH]ncc24)CCC2C3C2(F)F)nc1 (racemic) , what is its reported IC50?
Result: 5

Problem: Query: IC50; subject: COC1(C)COCc2c(-c3ccnc4[nH]ncc34)c(-c3ccc(F)cn3)nn2C1 (single isomer, unassigned) [Example 485]
Result: 370

Problem: Requested field: IC50. Item: Cc1cc(-c2c(-c3ccc(F)cc3)nn3c2COCC3)c2cn[nH]c2n1
Result: 2

Problem: Return reported IC50; argument: Cc1nc(-c2c(-c3ccc(F)cc3)nn3c2CCC(F)(F)C3)c2cn[nH]c2n1
Result: 5

Problem: Entry under review: COc1ccc2nccc(-c3c(-c4ccc(F)cn4)nn4c3OCCC4)c2n1 . Reported IC50?
Result: 4

Problem: Would you kindly share the measured IC50 for CC(=O)Nc1cc(-c2c(-c3ccc(F)cn3)nn3c2CC[C@H]2C[C@H]23)ccn1 (stereo in doubt) ?
Result: 20

Problem: Given the compound C[C@@H]1OCc2c(-c3ccnc4[nH]ncc34)c(-c3ccc(F)cc3)nn2[C@@H]1C (single isomer, unassigned) , what is its reported IC50?
Result: 10

Problem: For the compound Fc1ccc(-c2nn3c(c2-c2ccnc4[nH]ncc24)OCCCC3)nc1 , what IC50 is on record?
Result: 12

Problem: Entry under review: CC(C)[C@@H]1Cn2nc(-c3ccc(F)cn3)c(-c3ccnc4[nH]ncc34)c2CO1 (single isomer, unassigned) . Reported IC50?
Result: 63

Problem: Query: IC50; subject: C[C@H]1CCc2c(-c3ccnc4[nH]ncc34)c(-c3ccc(F)cn3)nn21
Result: 8

Problem: Endpoint output: IC50 of Cc1nc2[nH]ncc2c(-c2c(-c3ccc(F)cn3)nn3c2COC(C)(C)C3)c1F . Value?
Result: 8

Problem: Need IC50, item Cc1cc(-c2c(-c3ccc(F)cn3)nn3c2OCC(C)C3)c2cn[nH]c2n1 (stereo not drawn)
Result: 3

Problem: Returns the measured IC50 for the input compound. Input: Cc1cn2nccc2cc1-c1c(-c2ccc(F)cn2)nn2c1COC(C)(C)C2
Result: 451

Problem: Fill in the blank: the reported IC50 of CC1(C)Cc2c(-c3ccnc4[nH]ccc34)c(-c3ccc(F)cn3)nn2C1 is ____.
Result: 2

Problem: Given the compound CCn1ncc2cc(-c3c(-c4ccc(F)cn4)nn4c3OCCC4)cnc21 , what is its reported IC50?
Result: 44

Problem: GET /values?readout=IC50&item= CC[C@H]1Cn2nc(-c3ccc(F)cn3)c(-c3ccnc4[nH]ncc34)c2CO1 (single isomer, unassigned)
Result: 32

Problem: Report IC50 for CC1(C)Cn2nc(-c3ccc(F)cn3)c(-c3ccnc4cn[nH]c34)c2CO1 please.
Result: 450

Problem: Query (compound): Fc1ccc(-c2nn3c(c2-c2ccnc4[nH]ncc24)C[C@H]2[C@@H](C3)C2(F)F)cc1 (stereo in doubt) ; field requested: IC50
Result: 60

Problem: Suppose we examine the compound C[C@H]1COCc2c(-c3ccnc4[nH]ncc34)c(-c3ccc(F)cc3)nn21 (single isomer, unassigned) ; what IC50 value has been reported?
Result: 8

Problem: Form field: reported IC50 of [2H]C([2H])([2H])C1(C([2H])([2H])[2H])Cn2nc(-c3ccc(F)cn3)c(-c3c(F)cnc4[nH]nc(Cl)c34)c2CO1
Result: 5

Problem: So what's the measured IC50 for this one? CC1(C(F)(F)F)Cn2nc(-c3ccc(F)cn3)c(-c3ccnc4[nH]ncc34)c2CO1 (stereo not drawn)
Result: 7

Problem: What value of measured IC50 is listed for Fc1ccc(-c2nn3c(c2-c2ccnc4[nH]nc(Cl)c24)OCC(F)(F)C3)cc1 ?
Result: 1

Problem: Name the reported IC50 value associated with the compound FCC1Cn2nc(-c3ccc(F)cc3)c(-c3ccnc4[nH]ncc34)c2CO1 (single isomer, unassigned) [Example 104]
Result: 4

Problem: Value lookup for IC50; key = Fc1ccc(-c2nn3c(c2-c2ccnc4[nH]ncc24)CCC2(C3)CC2(F)F)nc1 (single isomer, unassigned) [Example 327]
Result: 14

Problem: Returns the measured IC50 for the input compound. Input: Cc1cc(-c2c(-c3ccc(F)cn3)nn3c2CCC2CC23)c2cn[nH]c2n1 (racemic)
Result: 6

Problem: Recorded IC50 of Cc1nc2[nH]ncc2c(-c2c(-c3ccc(F)cn3)nn3c2CC[C@H]2[C@@H]3C2(F)F)c1F (single isomer, unassigned) , please.
Result: 8
